- Test system: 99
- Assay explanation: Minimum inhibitory concentration, serial dilution method
- Type: cell-based
- Details: 18 h, read-out: Minimum Inhibitory Concentration
Hi there, I'd appreciate the recorded MIC for every entry that follows.
One number for each entry, in µg/mL.

Compound	Numeric value
NCC1OC(OC2C(N)CC(N)C(OC3OC(CO)C(O)C(N)C3O)C2O)C(N)CC1O (centres unmarked) [DKMB, 3'-deoxykanamycin B, reference compound]	1.56
NCC1CCC(N)C(OC2C(N)CC(N)C(OC3OC(CO)C(O)C(N)C3O)C2O)O1 (centres unmarked) [DKB, 3',4'-dideoxykanamycin B, reference compound]	3.13

As a next step, examine the compound that follows.
Data request: Output reported MIC of the compound NC1CC(O)C(CO)OC1OC1C(N)CC(N)C(OC2OC(CO)C(O)C(N)C2O)C1O (centres unmarked) on 99.
Data returned: 100
